Experiment: Lipophilicity, logD of the compound
Assay type: physicochemical
Settings: octanol/water
measured-quantity: logD

{"sample-smiles": "CC1(C)C(=O)N([C@H]2CCc3c(O)cccc32)c2nc(Nc3ccccc3)ncc21", "numeric-readout": 2.92}
